- Assay target: Protein farnesyltransferase subunit beta (Homo sapiens) (UniProt P49356)
- Sequence (P49356 whole entry): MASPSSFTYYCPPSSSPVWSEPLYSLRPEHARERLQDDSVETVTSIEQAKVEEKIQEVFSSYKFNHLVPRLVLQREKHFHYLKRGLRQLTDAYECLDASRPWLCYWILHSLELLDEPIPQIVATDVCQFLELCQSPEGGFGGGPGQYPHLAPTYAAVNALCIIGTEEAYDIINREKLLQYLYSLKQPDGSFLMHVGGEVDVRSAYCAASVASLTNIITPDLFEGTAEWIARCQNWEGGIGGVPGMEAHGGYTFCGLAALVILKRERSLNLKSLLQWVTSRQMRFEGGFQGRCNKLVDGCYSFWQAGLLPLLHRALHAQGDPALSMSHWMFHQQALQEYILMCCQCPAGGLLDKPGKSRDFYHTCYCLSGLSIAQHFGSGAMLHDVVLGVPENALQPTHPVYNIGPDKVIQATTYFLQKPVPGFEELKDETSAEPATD
- Assay text: Activity at FTase assessed as formation of farnesylated peptide after 60 mins by HPLC
The source made the active and inactive calls. No cut-off for these calls is given here. Peptide text beside a SMILES is read from it. * marks the point of attachment. Dansyl = CN(C)c1cccc2c(S(=O)(=O)*)cccc12
Result type: Activity

{"Molecule": "CC(C)C[C@H](NC(=O)[C@H](CO)NC(=O)[C@H](CS)NC(=O)[C@H](CS)NC(=O)CNS(=O)(=O)c1cccc2c(N(C)C)cccc12)C(=O)O (Dansyl-GCCSL-OH)", "Measurement": "inactive"}
{"Molecule": "CC(C)C[C@H](NC(=O)[C@H](Cc1ccccc1)NC(=O)[C@H](CO)NC(=O)[C@H](CS)NC(=O)CNS(=O)(=O)c1cccc2c(N(C)C)cccc12)C(=O)O (Dansyl-GCSFL-OH)", "Measurement": "inactive"}
